Experiment: chemical genetic growth profiling, strain panel (AID 1159580);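 note: tested at 20 µM; growth read once vehicle control cultures reached saturation at 30 °C; 1 = growth at the plate median or of vehicle wells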
Conditions: S. cerevisiae deletion strains, growth OD, locus YER123W, strain YCK3, stronger effect = lower value
In all, about 5,500 compounds went through this assay and about 2,000 (36%) were called active. Inconclusive results (about 18%) are left out. The list shows a part of the results.
quantity: normalized growth
I only need the number, thanks.

O=C(Nc1cc(C(F)(F)F)cc(C(F)(F)F)c1)C(Cl)(Cl)Cl    0.878
CC1CCC(C(C)C)C(N(Cc2ccccc2)C(=O)c2ccccc2)C1 (centres undefined)    0.97
CC1=CC(=O)N(c2ccc(OC(F)(F)F)cc2)C1=O    0.281
CNC(=O)Sc1c(-c2ccc(Cl)cc2)nn(C(=O)NC)c1SC    0.199

Exercise: Can you share its normalized growth? I mean this compound: "COc1ccc(-c2cn3cc(C)ccc3n2)cc1"
Key: 0.953

Exercise: Can you share its normalized growth? I mean this compound: "Cn1nccc1-c1cc(Cl)cc(Cl)c1O"
Key: 0.739

###

Each entry below carries its reported normalized growth.
Assay: chemical genetic growth profiling, strain panel (AID 1159580);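 note: tested at 20 µM; growth read once vehicle control cultures reached saturation at 30 °C; 1 = growth at the plate median or of vehicle wells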
Conditions: S. cerevisiae deletion strains, growth OD, locus YMR307W, strain GAS1, stronger effect = lower value
Hit rate of the full screen: of about 5,500 compounds, about 2,000 (36%) were called active. Another 18% or so got no clear call; they are omitted. Some of the results follow.
I only need the number, thanks.

The examples below pair each entry with its known result.
Cc1cc(CC(=O)O)n(C)c1C(=O)c1ccc(Cl)cc1    0.947
CN(C)C(=O)Oc1ccc[n+](C)c1    1.04
NC1(C(=O)O)CCCC1    1.01
S=C(S)OC1CC2CC1C1CCCC21 (stereo not given)    1.01
N.N.O=C(O)C1(C(=O)O)CCC1.[Pt+2]    0.984

Exercise: Can you share its normalized growth? I mean this compound: "COc1cc2c(CCNC(C)=O)c[nH]c2cc1Cl"
Key: 1.01

Exercise: Can you share its normalized growth? I mean this compound: "NC1(C(=O)O)CC1"
Key: 0.989

Exercise: Can you share its normalized growth? I mean this compound: CC(=O)OCC(=O)[C@@]1(O)CCC2C3CCC4=CC(=O)C=CC4(C)C3[C@@H](O)C[C@@]21C (stereo not given in full)
Key: 1.02

Exercise: Can you share its normalized growth? I mean this compound: "Cc1ccc(C(=O)c2ccc(CC(=O)O)n2C)cc1"
Key: 0.991

Exercise: Can you share its normalized growth? I mean this compound: NCC[C@@H](O)C(=O)N[C@@H]1C[C@H](N)[C@@H](O[C@H]2O[C@H](CN)[C@@H](O)[C@H](O)[C@H]2O)[C@H](O)[C@H]1O[C@H]1O[C@H](CO)[C@@H](O)[C@H](N)C1O (stereo not given in full)
Key: 0.921

###

Experiment: chemical genetic growth profiling, strain panel (AID 1159580);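 note: tested at 20 µM; growth read once vehicle control cultures reached saturation at 30 °C; 1 = growth at the plate median or of vehicle wells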
Settings: S. cerevisiae deletion strains, growth OD, locus YIL073C, strain SPO22
In all, about 5,500 compounds went through this assay and about 2,000 (36%) were called active. Roughly 18% stayed inconclusive and do not appear here. No stated cut-off is given here; in the data, active means normalized growth mostly below about 0.91 (no sharp cut-off); inconclusive means no clear call, values can overlap the other calls; inactive means mostly above about 0.92. This is one part of the list.
Log the outcome using a class from active, inactive

// below: answered molecules
O=c1oc2ccccc2cc1O    inactive
CC1(C)C(=O)[C@@H]2O[C@@H]2[C@@]2(C)C1C[C@@H](O)[C@]1(C)C2CC[C@@]2(C)[C@H](c3ccoc3)OC(=O)C3OC321 (stereo not given in full)    inactive
CC(C)(S)[C@@H](N)C(=O)O    inactive
CC(=O)O[C@@H]1CC2C(C)(C)[C@@H](O)CC[C@]2(C)C2CC[C@@]3(C)[C@H](c4ccoc4)OC(=O)[C@H]4O[C@]43[C@@]21C (stereo not given in full)    inactive
NC(C(=O)O)C(O)C(=O)O (stereo not given)    inactive
CC(=O)O[C@@H]1CC2C(C)(C)[C@H](O)CC[C@]2(C)C2CC[C@@]3(C)[C@H](c4ccoc4)OC(=O)C4OC43[C@@]21C (stereo not given in full)    inactive
CC(=O)C1CCC2C3CCC4C[C@H](O)CCC4(C)C3C[C@H](O)C12C (stereo not given in full)    inactive
CN[C@@H]1C(OC2[C@H](O[C@H]3[C@H](O)[C@@H](O)[C@H](N=C(N)N)[C@@H](O)[C@@H]3N=C(N)N)OC(C)[C@]2(O)CO)OC(CO)C(O)C1O (stereo not given in full)    inactive
COC1C=CC23c4cc5c(cc4CN(CC2O)[C@@H]3C1)OCO5 (stereo not given in full)    inactive
CC(=O)O[C@H]1CC[C@@]2(C)C(C[C@@H](OC(C)=O)[C@]3(C)C2CC[C@@]2(C)[C@H](c4ccoc4)OC(=O)[C@H]4O[C@]423)C1(C)C (stereo not given in full)    inactive

Exercise: How did this test come out for O=C(O)C(O)C(O)C(O)C(O)C(=O)O (stereo not given) ?
Key: inactive

Exercise: How did this test come out for "NCCCCCC(=O)O" ?
Key: inactive

Exercise: How did this test come out for CC(=O)O[C@H]1C[C@@H](OC(C)=O)C(C)(C)C2C[C@@H](OC(C)=O)[C@]3(C)C(CC[C@@]4(C)[C@H](c5ccoc5)OC(=O)[C@H]5O[C@]543)[C@]21C (stereo not given in full) ?
Key: inactive

Exercise: How did this test come out for "CC(=O)NCCc1c[nH]c2ccc(O)cc12" ?
Key: inactive

Exercise: How did this test come out for CCCCCCCCCCCCCC(=O)OC1C(C)C2(O)C(C=C(CO)CC3(O)C(=O)C(C)=CC32)C2C(C)(C)C12OC(C)=O (stereo not given) ?
Key: inactive

Exercise: How did this test come out for CC(=O)O[C@@H]1CC2C(C)(C)C(=O)C3OC3[C@]2(C)C2CC[C@@]3(C)[C@H](c4ccoc4)OC(=O)C4OC43[C@@]21C (stereo not given in full) ?
Key: inactive
